Ki reference
- System Tested: HIV-1 reverse transcriptase (p66/p51 heterodimer) (Human immunodeficiency virus type 1 group M subtype B, UniProt P04585)
- Construct: recombinant HIV-1 reverse transcriptase (p66/p51 heterodimer)
- Test Description: Inhibition of recombinant HIV-1 reverse transcriptase (Dixon's method, noncompetitive)
- Measurement Context: Dixon's method for noncompetitive inhibitors; read-out: Ki (inhibition constant)
Give just the number in µM; leave the unit off.

> print(dat)
                                   molecule  observed.measurement
1  Cc1ccc(Nc2cn(C3C=CC(O)C3)c(=O)n(Cc3ccccc3)c2=O)cc1 (stereo not drawn)                    60

Next up:
Item under review: O=c1[nH]c(=O)n(C2C=CC(O)C2)cc1Nc1ccc(Oc2ccccc2)cc1 (stereo not drawn) . Reported Ki?
119
